Hi there, I'd appreciate the recorded pIC50 for every entry that follows.
targetOrSystem: HLA-DR1 (DRB1*0101) molecules (Homo sapiens, UniProt P01903+P01911, A100R/D57E/F55L/F60I/F76Y/I96L/L162R/M171V/P40L/Q125E/R42F/V115G/Y59C)
assaySummary: Competitive binding assay with recombinant water-soluble HLA-DR1
conditionNotes: Affinity for HLA-DR1 (DRB1*0101) molecules determined by competition with biotinylated competitor HA 306-318, biotinylated competitor HA306-318
Residues, ends and D or L forms follow the SMILES beside them.
Would you please state pIC50, meaning minus log10 of the concentration in mol/L, as a bare number?

(Q) Please give the measured pIC50 for this molecule: C[C@H](N)C(=O)N[C@@H](CCCCN)C(=O)N[C@@H](CCC(=O)O)C(=O)N[C@@H](Cc1ccc(O)cc1)C(=O)N[C@@H](C)C(=O)N[C@@H](C)C(=O)N[C@@H](C)C(=O)N[C@@H](C)C(=O)N[C@@H](C)C(=O)N[C@@H](C)C(=O)N[C@@H](CCCCN)C(=O)N[C@@H](C)C(=O)N[C@@H](C)C(=O)N[C@@H](C)C(=O)N[C@@H](C)C(=O)O [compound 7] (H-AKEYAAAAAAKAAAA-OH)
(A) 4.72

(Q) Please give the measured pIC50 for this molecule: C[C@H](NC(=O)[C@H](C)NC(=O)[C@H](C)NC(=O)[C@H](C)NC(=O)[C@H](CCCCN)NC(=O)[C@H](C)NC(=O)[C@H](C)NC(=O)[C@H](C)NC(=O)[C@H](C)NC(=O)[C@H](C)NC(=O)[C@H](C)NC(=O)[C@H](Cc1ccc(O)cc1)NC(=O)[C@H](CCCCN)NC(=O)[C@H](C)NC(=O)[C@@H](N)CCC(=O)O)C(=O)O [compound 18] (H-EAKYAAAAAAKAAAA-OH)
(A) 4.48
